Source: PubChem BioAssay (NCI)

Kindly state growth inhibition for each of the entries shown.
assay: NCI Yeast Anticancer Drug Screen. Data for the rad50 strain (AID 155);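 further: 0% = growth of vehicle-only cultures of the same strain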; conditions: S. cerevisiae rad50 strain growth inhibition; at 3.7 µM; hits give high values
This is part of a sample that, as a whole, favours compounds with a hit. Of some 79,000 tested, about 15% had one in any assay.
Give bare numbers, in %.

Below: 2 compounds and their reported growth inhibition.
CC(=O)Oc1cc(-c2cc(OC(C)=O)c(OC(C)=O)c3ccccc23)c2ccccc2c1OC(C)=O | 8
COc1cc(C2SCC(=O)N2c2nnc(C(F)(F)F)s2)cc(OC)c1OC (stereo not drawn) | -2

Would you kindly look at the next entry?
Can you share its growth inhibition? I mean this compound: O=C1C2C(C(=O)N1c1ccc(OCc3ccccc3)cc1)C1c3ccccc3C2C2CCCCN21 (stereo not drawn)
11
